Settings: human gut metagenome, 24 h, 2 µM; also: call rule not given here

compound	Bacterial Biotransformation
CC(C)(C)NC(=O)[C@H]1CC[C@H]2[C@@H]3CC[C@H]4NC(=O)C=C[C@]4(C)[C@H]3CC[C@]12C [FINASTERIDE]	Compound metabolized
C#C[C@]1(OC(C)=O)CC[C@H]2[C@@H]3CCC4=C[C@@H](OC(C)=O)CC[C@@H]4[C@H]3CC[C@@]21C [ETHYNODIOL DIACETATE]	Compound metabolized
C=C[C@H]1CN2CC[C@H]1C[C@H]2[C@H](O)c1ccnc2ccc(OC)cc12.C=C[C@H]1CN2CC[C@H]1C[C@H]2[C@H](O)c1ccnc2ccc(OC)cc12.O.O.O=S(=O)(O)O [QUININE SULFATE]	Compound metabolized
COc1ccc2cc([C@H](C)C(=O)O)ccc2c1	Compound metabolized
CN1CCN(C2=Nc3ccccc3Oc3ccc(Cl)cc32)CC1.O=C(O)CCC(=O)O [LOXAPINE SUCCINATE]	Compound NOT metabolized
CSc1ccc2c(c1)C(N1CCN(C)CC1)Cc1ccccc1S2.O=C(O)/C=C\C(=O)O (centres undefined)	Compound NOT metabolized
O=P1(N(CCCl)CCCl)NCCCO1 (centres undefined) [CYCLOPHOSPHAMIDE ANHYDROUS]	Compound metabolized
CCN(CC)CCOC(=O)C1(C2CCCCC2)CCCCC1	Compound metabolized
CC#CCn1c(N2CCC[C@@H](N)C2)nc2c1c(=O)n(Cc1nc(C)c3ccccc3n1)c(=O)n2C	Compound NOT metabolized
COCCCC/C(=N\OCCN)c1ccc(C(F)(F)F)cc1.O=C(O)/C=C\C(=O)O [FLUVOXAMINE MALEATE]	Compound metabolized
CC(C)c1nc(N(C)S(C)(=O)=O)nc(-c2ccc(F)cc2)c1/C=C/[C@@H](O)C[C@@H](O)CC(=O)[O-].CC(C)c1nc(N(C)S(C)(=O)=O)nc(-c2ccc(F)cc2)c1/C=C/[C@@H](O)C[C@@H](O)CC(=O)[O-].[Ca+2]	Compound metabolized
CN(C)CCOC(c1ccc(Cl)cc1)c1ccccn1.O=C(O)/C=C\C(=O)O (centres undefined) [CARBINOXAMINE MALEATE]	Compound NOT metabolized
C[C@]12C=CC(=O)C=C1CC[C@@H]1[C@@H]2C(=O)C[C@@]2(C)[C@H]1CC[C@]2(O)C(=O)CO	Compound metabolized
CC#C[C@]1(O)CC[C@H]2[C@@H]3CCC4=CC(=O)CCC4=C3[C@@H](c3ccc(N(C)C)cc3)C[C@@]21C	Compound metabolized

* * *

Conditions: human gut metagenome, 24 h, 2 µM

molecule	Bacterial Biotransformation
COC(=O)[C@H](c1ccccc1Cl)N1CCc2sccc2C1.O=S(=O)(O)O [CLOPIDOGREL BISULFATE]	Compound metabolized
CCCN(CCC)CCc1cccc2c1CC(=O)N2	Compound metabolized
Clc1cccc(Cl)c1N=C1NCCN1	Compound metabolized
CCOc1ccc2nc(S(N)(=O)=O)sc2c1 [ETHOXZOLAMIDE]	Compound metabolized
C#C[C@]1(OC(C)=O)CC[C@H]2[C@@H]3CCC4=C[C@@H](OC(C)=O)CC[C@@H]4[C@H]3CC[C@@]21C [ETHYNODIOL DIACETATE]	Compound metabolized
CC(=O)O[C@H]1C(=O)[C@@]2(C)[C@H]([C@H](OC(=O)c3ccccc3)[C@]3(O)C[C@H](OC(=O)[C@H](O)[C@@H](NC(=O)c4ccccc4)c4ccccc4)C(C)=C1C3(C)C)[C@]1(OC(C)=O)CO[C@@H]1C[C@@H]2O	Compound NOT metabolized
CCCC(C)(COC(N)=O)COC(=O)NC(C)C (stereo unspecified)	Compound metabolized
CC(N)C12CC3CC(CC(C3)C1)C2 (stereo unspecified)	Compound NOT metabolized
Nc1nc(N)nc(-c2cc(Cl)ccc2Cl)n1.O=C(O)/C=C\C(=O)O [IRSOGLADINE MALEATE]	Compound metabolized
CC1=C(CC(=O)O)c2cc(F)ccc2/C1=C\c1ccc([S+](C)[O-])cc1 (stereo unspecified)	Compound metabolized
O=C1N=C([O-])NC1(c1ccccc1)c1ccccc1.[Na+] [PHENYTOIN SODIUM]	Compound metabolized
CC(C)c1nc(N(C)S(C)(=O)=O)nc(-c2ccc(F)cc2)c1/C=C/[C@@H](O)C[C@@H](O)CC(=O)[O-].CC(C)c1nc(N(C)S(C)(=O)=O)nc(-c2ccc(F)cc2)c1/C=C/[C@@H](O)C[C@@H](O)CC(=O)[O-].[Ca+2]	Compound metabolized
CCCN1C[C@H](CSC)C[C@@H]2c3cccc4[nH]cc(c34)C[C@H]21.CS(=O)(=O)O [PERGOLIDE MESYLATE]	Compound NOT metabolized
CN(C)CCC=C1c2ccccc2COc2ccccc21 [DOXEPIN]	Compound metabolized
Nc1nc(NC2CC2)c2ncn([C@H]3C=C[C@@H](CO)C3)c2n1.Nc1nc(NC2CC2)c2ncn([C@H]3C=C[C@@H](CO)C3)c2n1.O=S(=O)(O)O [ABACAVIR SULFATE]	Compound metabolized
COc1cc2nc(N3CCN(C(=O)C4COc5ccccc5O4)CC3)nc(N)c2cc1OC.CS(=O)(=O)O (stereo unspecified) [DOXAZOSIN MESYLATE]	Compound metabolized

* * *

Details: human gut metagenome, 24 h, 2 µM

molecule	Bacterial Biotransformation
Br.CN1CCC[C@@H]1Cc1c[nH]c2ccc(CCS(=O)(=O)c3ccccc3)cc12 [ELETRIPTAN HYDROBROMIDE]	Compound metabolized
CC(C)c1c(CN(C)C(C)Cc2ccccc2)n(C)n(-c2ccccc2)c1=O (stereo not given) [FAMPROFAZONE]	Compound metabolized
Clc1cccc(Cl)c1N=C1NCCN1 [CLONIDINE]	Compound metabolized
CN[C@H]1CC[C@@H](c2ccc(Cl)c(Cl)c2)c2ccccc21 [SERTRALINE]	Compound metabolized
C[C@]12CCC(=O)C=C1[C@@H]1C[C@@H]1[C@H]1[C@@H]3[C@@H]4C[C@@H]4[C@@]4(CCC(=O)O4)[C@@]3(C)CC[C@@H]12 [DROSPIRENONE]	Compound metabolized
CC(=O)OCC(CCn1cnc2cnc(N)nc21)COC(C)=O [FAMCICLOVIR]	Compound metabolized
C[C@@H](c1ncncc1F)[C@](O)(Cn1cncn1)c1ccc(F)cc1F [VORICONAZOLE]	Compound metabolized
C=C[C@H]1CN2CC[C@H]1C[C@H]2[C@H](O)c1ccnc2ccc(OC)cc12.C=C[C@H]1CN2CC[C@H]1C[C@H]2[C@H](O)c1ccnc2ccc(OC)cc12.O.O.O=S(=O)(O)O [QUININE SULFATE]	Compound NOT metabolized
CC(C)(C)NC(=O)[C@H]1CC[C@H]2[C@@H]3CC[C@H]4NC(=O)C=C[C@]4(C)[C@H]3CC[C@]12C [FINASTERIDE]	Compound metabolized
CCOC(=O)[C@H](CCc1ccccc1)N[C@@H](C)C(=O)N1CCC[C@H]1C(=O)O.O=C(O)/C=C\C(=O)O [ENALAPRIL MALEATE]	Compound NOT metabolized
CC12CC3CC(C)(C1)CC(N)(C3)C2 [MEMANTINE]	Compound NOT metabolized
Br.COc1ccc2c(c1)[C@]13CCCC[C@@H]1[C@H](C2)N(C)CC3.O [DEXTROMETHORPHAN HYDROBROMIDE]	Compound metabolized
CC(=O)O[C@H]1C(=O)[C@@]2(C)[C@H]([C@H](OC(=O)c3ccccc3)[C@]3(O)C[C@H](OC(=O)[C@H](O)[C@@H](NC(=O)c4ccccc4)c4ccccc4)C(C)=C1C3(C)C)[C@]1(OC(C)=O)CO[C@@H]1C[C@@H]2O [PACLITAXEL]	Compound metabolized
CC(=O)OCC(=O)NCCCOc1cccc(CN2CCCCC2)c1 [ROXATIDINE ACETATE]	Compound metabolized
C#C[C@]1(OC(C)=O)CC[C@H]2[C@@H]3CCC4=C/C(=N/O)CC[C@@H]4[C@H]3CC[C@@]21CC [NORGESTIMATE]	Compound NOT metabolized
Nc1nc(N)nc(-c2cc(Cl)ccc2Cl)n1.O=C(O)/C=C\C(=O)O [IRSOGLADINE MALEATE]	Compound NOT metabolized
CN(C)CCOC(C)(c1ccccc1)c1ccccn1.O=C(O)CCC(=O)O (stereo not given) [DOXYLAMINE SUCCINATE]	Compound NOT metabolized
COc1ccc2c(c1)c(CC(=O)O)c(C)n2C(=O)c1ccc(Cl)cc1 [INDOMETHACIN]	Compound NOT metabolized
CC(C)C[C@H]1C(=O)N2CCC[C@H]2[C@]2(O)O[C@](NC(=O)[C@@H]3C=C4c5cccc6[nH]c(Br)c(c56)C[C@H]4N(C)C3)(C(C)C)C(=O)N12.CS(=O)(=O)O [BROMOCRIPTINE MESYLATE]	Compound metabolized
COc1cc(NC(C)CCCN)c2ncccc2c1.O=P(O)(O)O.O=P(O)(O)O (stereo not given) [PRIMAQUINE PHOSPHATE]	Compound NOT metabolized
COc1ccc([C@@H]2Sc3ccccc3N(CCN(C)C)C(=O)[C@@H]2OC(C)=O)cc1 [DILTIAZEM]	Compound metabolized
COc1ccc(C(CN(C)C)C2(O)CCCCC2)cc1 (stereo not given) [VENLAFAXINE]	Compound NOT metabolized
O=C1N=C([O-])NC1(c1ccccc1)c1ccccc1.[Na+] [PHENYTOIN SODIUM]	Compound NOT metabolized
CCOc1ccc2nc(S(N)(=O)=O)sc2c1 [ETHOXZOLAMIDE]	Compound NOT metabolized
C[C@]12C=CC(=O)C=C1CC[C@@H]1[C@@H]2C(=O)C[C@@]2(C)[C@H]1CC[C@]2(O)C(=O)CO [PREDNISONE]	Compound metabolized
CC(C)(C)N.CCC[C@H](N[C@@H](C)C(=O)N1[C@H](C(=O)O)C[C@@H]2CCCC[C@@H]21)C(=O)OCC [PERINDOPRIL ERBUMINE]	Compound metabolized
O=C(O)CCC(=O)O.O=C(O[C@H]1CN2CCC1CC2)N1CCc2ccccc2[C@@H]1c1ccccc1 [SOLIFENACIN SUCCINATE]	Compound NOT metabolized
Cc1cc2c(s1)Nc1ccccc1N=C2N1CCN(C)CC1 [OLANZAPINE]	Compound metabolized
O=C1CN2Cc3c(ccc(Cl)c3Cl)N=C2N1 [ANAGRELIDE]	Compound metabolized
CC(C)NCC(O)COc1ccc(CC(N)=O)cc1 (stereo not given) [ATENOLOL]	Compound metabolized
